# study.target: T1, Recombinant His-tagged human CD36.ECD protein (Sino Biological) (human, UniProt P16671 30-439)
# T1 construct: Bought protein; also called hCD36.ECD; hCD36; not shown: His tag
# T1 sequence (P16671 30-439 limits assumed): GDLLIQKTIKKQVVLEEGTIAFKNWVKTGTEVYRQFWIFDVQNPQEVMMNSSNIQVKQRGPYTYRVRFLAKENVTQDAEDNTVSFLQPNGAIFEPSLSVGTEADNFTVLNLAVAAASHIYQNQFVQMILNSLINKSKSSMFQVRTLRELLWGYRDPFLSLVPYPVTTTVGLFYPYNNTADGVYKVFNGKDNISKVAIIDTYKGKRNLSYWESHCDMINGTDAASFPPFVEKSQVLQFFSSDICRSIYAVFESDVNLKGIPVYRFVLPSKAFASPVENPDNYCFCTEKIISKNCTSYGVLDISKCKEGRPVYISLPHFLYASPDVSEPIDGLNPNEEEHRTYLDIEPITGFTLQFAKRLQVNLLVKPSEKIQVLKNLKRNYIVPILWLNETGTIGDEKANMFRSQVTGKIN
# test.description: ELISA, coated human CD36.ECD (FIG. 2A)
Listing of entries alongside the reported EC50.
Respond numerically; units are nM and should not be typed.

Would you please look over these solved cases?
{"binder": "117_58E (antibody, V domains shown, full-length IgG, human kappa) VH: EVQLVESGGGLVQPGGSLRLSCAASGFTISSFGIHWVRQAPGKGLEWVAWIAPYGGYEYYADSVKGRFTISADTSKNTAYLQMNSLRAEDTAVYYCARSFFGYFDYWGQGTLVTVSS VL: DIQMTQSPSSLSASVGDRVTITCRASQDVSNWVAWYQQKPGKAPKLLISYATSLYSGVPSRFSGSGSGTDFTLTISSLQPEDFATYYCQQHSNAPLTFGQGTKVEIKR", "EC50 [nM]": 0.422}
{"binder": "117_57R (antibody, V domains shown, full-length IgG, human kappa) VH: EVQLVESGGGLVQPGGSLRLSCAASGFTISSFGIHWVRQAPGKGLEWVAWIAPYGGRTYYADSVKGRFTISADTSKNTAYLQMNSLRAEDTAVYYCARSFFGYFDYWGQGTLVTVSS VL: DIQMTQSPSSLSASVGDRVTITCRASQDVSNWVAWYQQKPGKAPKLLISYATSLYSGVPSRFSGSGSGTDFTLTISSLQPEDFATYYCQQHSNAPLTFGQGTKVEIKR", "EC50 [nM]": 0.0695}

Here is the next item to consider.
**Query** Could you tell me which EC50 is on file for 117_57E (antibody, V domains shown, full-length IgG, human kappa) VH: EVQLVESGGGLVQPGGSLRLSCAASGFTISSFGIHWVRQAPGKGLEWVAWIAPYGGETYYADSVKGRFTISADTSKNTAYLQMNSLRAEDTAVYYCARSFFGYFDYWGQGTLVTVSS VL: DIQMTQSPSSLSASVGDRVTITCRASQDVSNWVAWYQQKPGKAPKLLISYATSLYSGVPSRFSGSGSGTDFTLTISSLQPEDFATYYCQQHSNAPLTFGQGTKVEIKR ?
**Result** 0.0492
